target: Tau phosphorylation (human DYRK1A and Tau) in HEK293 cells (Homo sapiens); construct: p-Tau ELISA; experiment: Kinase cellular assay: p-Tau levels in HEK293 cells expressing full-length human DYRK1A and Tau; conditions: Table 1a
Checkbox rule: IC50 lower than 60 nM = fulfilled; IC50 not lower than 60 nM = not fulfilled.

(Q) Problem: For the compound CC1(COC(=O)Nc2nc3cc(-c4ccncc4)ccc3[nH]2)COC1 , is IC50 under 60 nM?
(A) fulfilled

(Q) One more compound: Cc1cc(-c2ccc3[nH]c(NC(=O)NCC4(C)COC4)nc3c2)ccn1
(A) not fulfilled

(Q) One more compound: O=C(Nc1nc2cc(-c3ccncc3)ccc2[nH]1)OCC1COC1
(A) fulfilled

(Q) One more compound: Cc1cc(-c2ccc3[nH]c(NC(=O)OCC4COC4)nc3c2)ccn1
(A) fulfilled

(Q) One more compound: COC(=O)Nc1nc2cc(-c3ccnc(C)c3)ccc2[nH]1
(A) not fulfilled

###

system: IL-2; test: T-cell inflammation inhibition assay (anti-CD3 stimulated PBMCs), IL-2; type: cell-based; details: Homo sapiens, PBMC, read-out: % inh at 5 μM IL2
Would you kindly list inhibition at 5 µM for each of these compounds?
Numbers only here, please. The scale is %.

(Q) Give IL-2 inhibition at 5 µM for COC(=O)Nc1nc2cc(-c3ccnc(C)c3)ccc2[nH]1
(A) 46.5

(Q) One more compound: O=C(Nc1nc2cc(-c3ccncc3)ccc2[nH]1)OCC1COC1
(A) 76.1

(Q) One more compound: Cc1cc(-c2ccc3[nH]c(NC(=O)OCC4COC4)nc3c2)ccn1
(A) 78.2

(Q) One more compound: Cc1cc(-c2ccc3[nH]c(NC(=O)NCC4(C)COC4)nc3c2)ccn1
(A) 38.9

(Q) One more compound: O=C(Nc1nc2cc(-c3cccnc3)ccc2[nH]1)OCC1COC1
(A) 36.9

###

System: INFg
Experiment: T-cell inflammation inhibition assay (anti-CD3 stimulated PBMCs), IFN gamma
Format: cell-based
Conditions: Homo sapiens, PBMC, read-out: % inh at 5 μM INFg
Method: T-cell Inflammation Inhibition Assay Protocol: Day 1, High binding plates were coated with anti-CD3 (clone UCHT-1, 2 μg/mL) and isotype IgG1 using PBS 1× and incubated overnight at 4 °C. […] Cytokines Measured: The following cytokines were measured for a complete cytokine response profile. […]
Would you kindly list inhibition at 5 µM for each of these compounds?
Numbers only here, please. The scale is %.

(Q) Data request, read-out inhibition at 5 µM, for Cc1cc(-c2ccc3[nH]c(NC(=O)OCC4COC4)nc3c2)ccn1
(A) 58.8

(Q) One more compound: Cc1cc(-c2ccc3[nH]c(NC(=O)NCC4(C)COC4)nc3c2)ccn1
(A) 30

(Q) One more compound: O=C(Nc1nc2cc(-c3cccnc3)ccc2[nH]1)OCC1COC1
(A) 24.4

(Q) One more compound: COC(=O)Nc1nc2cc(-c3ccnc(C)c3)ccc2[nH]1
(A) 31.4

(Q) One more compound: O=C(Nc1nc2cc(-c3ccncc3)ccc2[nH]1)OCC1COC1
(A) 57.5

###

target: DYRK1A (Homo sapiens, UniProt Q13627); construct: T7 phage (kinase-tagged T7 phage), or a DNA tag for qPCR if produced in HEK-293; made in house; host or cells: E. coli (BL21-derived, T7 phage) for most kinases, HEK-293 for the remaining ones; assay: Kinase assay, % inhibition at fixed concentrations (Table 1b); format: binding; details: read-out: % inh at 10 μM
METRIC_NAME: inhibition at 10 µM (%)
Numbers only here, please. The scale is %.

(Q) Give DYRK1A (Homo sapiens, UniProt Q13627) inhibition at 10 µM for COc1ccc2[nH]c(NC(=O)OCc3cccc(F)c3)nc2c1 [Compound 21]
(A) 69

(Q) One more compound: COc1ccc2[nH]c(NC(=O)OCC3(C)COC3)nc2c1 [Compound 20]
(A) 96.4

(Q) One more compound: COC(=O)Nc1nc2cc(OC)ccc2[nH]1 [Compound 17]
(A) 69

(Q) One more compound: CC1(COC(=O)Nc2nc3cc(-c4ccncc4)ccc3[nH]2)COC1 [Compound 1]
(A) 100

(Q) One more compound: COc1ccc2[nH]c(NC(=O)OCCN(C)C)nc2c1 [Compound 19]
(A) 51

(Q) One more compound: COc1ccc2[nH]c(N)nc2c1 [Compound 18, 5-Methoxy-1H-benzo[d]imidazol-2-amine]
(A) 11

###

target: DYRK1A (Homo sapiens); construct: T7 phage (kinase-tagged T7 phage), or a DNA tag for qPCR if produced in HEK-293; made in house; host or cells: E. coli (BL21-derived, T7 phage) for most kinases, HEK-293 for the remaining ones; assay: Competitive binding assay, KD to DYRK1A; details: read-out: KD
METRIC_NAME: Kd (nM)
Numbers only here, please. The scale is nM.

(Q) Data request, read-out Kd, for Cc1cc(-c2ccc3[nH]c(NC(=O)OCC4COC4)nc3c2)ccn1 [Compound 5]
(A) 0.33

(Q) One more compound: CC1(COC(=O)Nc2nc3cc(-c4ccncc4)ccc3[nH]2)COC1 [Compound 1]
(A) 0.17

(Q) One more compound: COC(=O)Nc1nc2cc(-c3ccnc(C)c3)ccc2[nH]1 [Compound 2]
(A) 0.72

(Q) One more compound: Cc1cc(-c2ccc3[nH]c(NC(=O)OCC4(C)COC4)nc3c2)ccn1 [Compound 12]
(A) 0.14

(Q) One more compound: CC1(CNC(=O)Nc2nc3cc(-c4ccncc4)ccc3[nH]2)COC1 [Compound 11]
(A) 0.33

###

Would you kindly list inhibition at 5 µM for each of these compounds?
system: IL-17; assay: T-cell inflammation inhibition assay (anti-CD3 stimulated PBMCs), IL-17; format: cell-based; conditions: Homo sapiens, PBMC, second value, read-out: % inh at 5 μM IL17
Numbers only here, please. The scale is %.

(Q) Data request, read-out inhibition at 5 µM, for Cc1cc(-c2ccc3[nH]c(NC(=O)NCC4(C)COC4)nc3c2)ccn1
(A) 7.3

(Q) One more compound: COC(=O)Nc1nc2cc(-c3ccnc(C)c3)ccc2[nH]1
(A) 35.9

(Q) One more compound: Cc1cc(-c2ccc3[nH]c(NC(=O)OCC4COC4)nc3c2)ccn1
(A) 51.8

(Q) One more compound: O=C(Nc1nc2cc(-c3ccncc3)ccc2[nH]1)OCC1COC1
(A) 30.4
